The measurements presented in this section are drawn from ChEMBL document CHEMBL1122844.

# Tested on: Mus musculus
# test_summary: Effective dose required to produce analgesic action in mice after peroral administration
# Assay type: functional
# details: po
observation_type: ED50

Worked set:
| compound | subject_of_test | ED50 |
| --- | --- | --- |
| C[C@H]1C2Cc3ccc(O)cc3[C@@]1(C)CCN2CCc1ccccc1 | Mus musculus | 0.135 mg/kg |
| CC(C)=CCN1CC[C@@]2(C)c3cc(SC(=O)c4ccc(Cl)cc4)ccc3CC1[C@@H]2C | Mus musculus | 6 mg/kg |
| COc1ccc(C(=O)Sc2ccc3c(c2)[C@]2(C)CCN(C)C(C3)[C@@H]2C)cc1 | Mus musculus | 4.8 mg/kg |
| C[C@H]1C2Cc3ccc(SC(=O)C(C)(C)C)cc3[C@]1(C)CCN2C | Mus musculus | 6.4 mg/kg |
| CC(C)=CCN1CC[C@]2(C)c3cc(O)ccc3C[C@H]1[C@H]2C [(+)-PENTAZOCINE] | Mus musculus | 1.6 mg/kg |

Turning now to a further record.
*Q* Sample C[C@H]1[C@H]2Cc3ccc(O)cc3[C@@]1(C)CCN2C — what was its ED50?
*A* 0.27 mg/kg
